- Tested System: T1, recombinant human GM-CSF protein (human, UniProt P04141 18-144)
- T1 construct: Bought recombinant protein (Genscript); also called biotinylated human GM-CSF protein
- T1 sequence (P04141 18-144 limits assumed): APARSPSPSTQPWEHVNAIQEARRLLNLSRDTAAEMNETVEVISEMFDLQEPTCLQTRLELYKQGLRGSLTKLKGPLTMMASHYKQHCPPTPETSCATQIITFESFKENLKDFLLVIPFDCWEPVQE
- Assay Remarks: SPR Biacore T200, antibody captured by anti-human Fc, GM-CSF as analyte, 25 C, 1:1 model
Listing: pKd of selected binders
Formally, pKd is defined as -log10 of the concentration c, with c in mol/L.

For orientation, consider the following solved cases.
Hu23F4-29 (antibody, V domains shown, Humanized) VH: EVQLVQSGAEVKKPGASVKVSCKASGYTFTSHYLHWVRQAPGQGLEWMGWIFPGDDKTKYNEKFKGRVTLTSDTSISTAYMELSRLRSDDTAVYYCARGTKYLNWNFDVWGQGTTVTVSS VL: DIQLTQSPSFLSASVGDRVTITCKANQNVGTTLAWYQQKPGKAPKALIYSASYRYSGVPSRFSGSGSGTEFTLTISSLQPEDFATYYCHQYTTYPLTFGGGTKVEIK    9.82
Hu50C5-17 (antibody, V domains shown, Humanized; also called 35230Hu50C5-17) VH: EVQLVQSGAEVKKPGSSVKVSCKASGYIFSPYSIHWVRQAPGQGLEWIGYINPSTGYIEYNQHFKDRTTLTADKSTSTAYMELRSLRSEDTAVYYCARGGDYEGYFDYWGQGTTVTVSS VL: DIQMTQSPSSLSASVGDRVTITCRLNENIYSFLAWYQQKPGKAPKLLVYNAETLAEGVPSRFSGSGSGTDFTLTISSLQPEDFATYYCQQHYGTPYTFGGGTKVEIK    10.60
Hu50C5-18 (antibody, V domains shown, Humanized) VH: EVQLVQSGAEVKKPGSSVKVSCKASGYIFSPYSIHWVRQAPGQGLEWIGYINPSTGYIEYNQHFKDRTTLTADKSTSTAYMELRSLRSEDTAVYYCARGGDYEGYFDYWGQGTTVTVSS VL: DIQMTQSPSSLSASVGDRVTITCRLNENIYSFLAWYQQKPGKAPKLLVYNAETLAEDVPSRFSGSGSGTDFTLTISSLQPEDFATYYCQQHYGTPYTFGGGTKVEIK    10.64

Kindly consider the entry below.
Incoming: Item Hu50C5-21 (antibody, V domains shown, Humanized; also called 35230Hu50C5-21) VH: EVQLVQSGAEVKKPGSSVKVSCKASGYIFTPYSIHWVRQAPGQGLEWIGYINPSTGYIEYNQHFKDRTTLTADKSTSTAYMELRSLRSEDTAVYYCARGGDYEGYFDYWGQGTTVTVSS VL: DIQMTQSPSSLSASVGDRVTITCRLNENIYSFLAWYQQKPGKAPKLLIYNAETLAEGVPSRFSGSGSGTDFTLTISSLQPEDFATYYCQQHYGTPYTFGGGTKVEIK has what recorded pKd?
Outgoing: 10.63
